- EXPERIMENTAL PARAMETERS: buffer; pH 7.4; 200.0 µM
OBSERVED PROPERTY: solubility kinetic

>>> print(df.to_string())
                                   molecule        result
0  Cc1ccc2c(c1)=C/C(=C\c1c(O)[nH]c(=O)[nH]c1=O)C(=O)N=2   < 0.2 µg/mL
1                 CNC(=O)c1sc(-c2cccs2)nc1C  > 35.7 µg/mL
2  Cc1ccc(N2C(=O)C3C4C=CC(CC4)C3C2=O)cc1Br (stereo not drawn)   < 0.7 µg/mL
3  CC(OC(=O)c1cccc(O)c1)C(=O)N(C)Cc1ccccc1 (stereo not drawn)    > 47 µg/mL
4  O=C(/C(=C(\O)c1ccccc1)c1nc2ccccc2[nH]1)c1ccccc1   < 0.4 µg/mL
5     O=C(/C=C/c1ccco1)Nc1ccc(CN2CCOCC2)cc1  > 46.9 µg/mL
6                    COc1cccc(NC2=NCCCS2)c1  > 33.3 µg/mL
7  O=C(O)c1cccc([N+](=O)[O-])c1C(=O)Nc1nc2ccccc2s1  > 51.5 µg/mL

* * *

solubility kinetic values for the molecules below.
- EXPERIMENTAL PARAMETERS: buffer; pH 7.4; 200.0 µM
OBSERVED PROPERTY: solubility kinetic (µg/mL)

                                   molecule  inequality_sign  numeric_readout
0              CCN(C(=O)CCc1ccccc1)C1CCCCC1                =             26.8
1  CN1CCN(c2ccc([N+](=O)[O-])c(Sc3ccccn3)c2)CC1                >             49.6
2  Cc1[nH]c(=O)[nH]c(=O)c1Sc1ccccc1[N+](=O)[O-]                =             20.5
3  CC1(c2ccc(Cl)cc2)NC(=O)N(CN2CCOCC2)C1=O (centres undefined)                >             48.6
4           O=C1NC(=S)N/C1=C/c1ccc2ccccc2c1                =              0.6
5           Cc1ccc(C(=O)NCCN2CCOCC2)c(Cl)c1                >             42.4
6        CCOC(=O)c1nc(NCc2ccccc2)c2ccccc2n1                =             27.4
7   CC(=O)c1ccc(NC(=O)c2cc(-c3cccs3)on2)cc1                <              0.3
8  Cc1ccccc1NC(=S)N(CCN(C)C)C(C)c1cccnc1 (centres undefined)                >             51.4

* * *

Below: a set of entries, each annotated with reported solubility kinetic.
- EXPERIMENTAL PARAMETERS: buffer; pH 7.4; 200.0 µM
OBSERVED PROPERTY: solubility kinetic (µg/mL)

In [3]: df
Out[3]:
                                   compound  inequality_sign  numeric_readout
0  Cc1ccc2nc(C(F)C(F)(F)F)[nH]c2c1 (configuration not stated)                >             34.8
1     O=C(Cn1ccc([N+](=O)[O-])n1)NCc1ccccc1                >               39
2           COc1ccccc1N1CCN(c2nccc(C)n2)CC1                =             40.3
3                   O=C(COc1ccccc1Cl)NC1CC1                >             33.9
4     COC(=O)c1cc(OC)c(OC)cc1NC(=S)N1CCOCC1                =             39.7
5  Cc1ccsc1CNC1C2CC3CC(C2)CC1C3.Cl (configuration not stated)                =             39.9
6         Cc1ccc(C(=O)NCCNC(=O)c2cccnc2)cc1                =               40

* * *

- EXPERIMENTAL PARAMETERS: buffer; pH 7.4; 200.0 µM
Threshold rule: solubility kinetic greater than or equal to 30 µg/mL is label 1; below that, label 0.

>>> print(df.to_string())
                                    compound  discrete_label
 0               Clc1ccc(Nc2ccc3ccccc3n2)cc1         label 0
 1       Cc1ccc(C(=O)O/N=C(\N)c2ccccn2)cc1Cl         label 0
 2          O=C(Cc1ccc(Cl)cc1)N1CCc2ccccc2C1         label 1
 3             CCN1C(=O)/C(=C\c2ccncc2)SC1=S         label 0
 4  COc1ccc(C(=O)CCC(C)(C)[N+](=O)[O-])cc1OC         label 1
 5     CCOc1ccc(OCC)c(S(=O)(=O)NCc2ccccc2)c1         label 1
 6   N/C(=N\c1nc2ccccc2o1)NC(=O)c1cccc(Cl)c1         label 0
 7                CCC1(c2ccccc2)C(=O)NCNC1=O         label 1
 8         CC(C)(C)NC(=O)C(=O)NNC(=O)c1ccco1         label 1
 9     CCN(CC(=O)Nc1ccccc1OC)C(=O)CCc1ccccc1         label 1
10     O=C(O)c1cccc(Nc2ccncc2[N+](=O)[O-])c1         label 1
11  COc1cc(S(=O)(=O)N2CCOCC2)cc(C(=O)NCC(c2cccs2)N2CCOCC2)c1OC (stereo unspecified)         label 0
12   CN(C)C(=O)COc1ncnc2scc(-c3ccc(F)cc3)c12         label 1
13  CCC1Sc2ccccc2N(CC(=O)NC2CC2)C1=O (stereo unspecified)         label 1
14    CCOC(=O)c1cc(-c2csc(Nc3ccccc3Cl)n2)on1         label 0
15      Cc1ccc(C)c(NC(=O)CSc2cccc3cccnc23)c1         label 0
16  CC(C)(CO)NC(=O)c1ccc2c(c1)C(=O)c1ccccc1-2         label 1
17         Nc1cc(=O)[nH]c(=O)n1-c1ccc(Cl)cc1         label 1
18  CC(=O)N1CCN(c2ccc(S(=O)(=O)N3CCCCC3)cc2[N+](=O)[O-])CC1         label 1
19  CC1CCCC(NC(=O)Cn2cc([N+](=O)[O-])ccc2=O)C1C (stereo unspecified)         label 1
20   Cn1c(=O)c2c(nc(SCc3ccccc3F)n2C)n(C)c1=O         label 0
21  C=CCNc1ccc(N2C(=O)CCCC2=O)cc1[N+](=O)[O-]         label 1
22                    C1CCCN(C2CCNCC2)CC1.Cl         label 1
23  Cc1cc(C)nc(N2CCCC(C(=O)Nc3cccc(Cl)c3)C2)n1 (stereo unspecified)         label 0
24                 Cl.c1ccc(CCNCc2cccnc2)cc1         label 1
25           CCCCCNC(=O)C1c2ccccc2Oc2ccccc21         label 0
26          Cc1ccc(CSc2nc3ccccc3c(=O)n2C)cc1         label 0
27            O=c1[nH]cccc1-c1nc2ccccc2[nH]1         label 1
28  Cc1ccc(S(=O)(=O)NCC(=O)OCC(=O)N2CC(C)OC(C)C2)cc1 (stereo unspecified)         label 1
29  O=c1nc(Nc2ccc([N+](=O)[O-])cc2)[nH]c(=O)[nH]1         label 0

* * *

Parameter solubility kinetic: see the listing below.
- EXPERIMENTAL PARAMETERS: buffer; pH 7.4; 200.0 µM
OBSERVED PROPERTY: solubility kinetic (µg/mL)

                                   compound  inequality_sign  numeric_readout
0  O=C(Nc1ccccc1)c1c(O)c2c(n(Cc3ccco3)c1=O)CCCC2                <              0.4
1  COc1ccc2c(C)nc(Nc3nc(-c4ccccc4)cc(=O)[nH]3)nc2c1                <              0.2
2  CC(NC(=O)c1cnccn1)c1ccc(S(N)(=O)=O)cc1 (centres undefined)                >               46
3        CCOC(=O)Cc1csc(NC(=O)c2cc(C)on2)n1                >             44.3
4     CN1C(=O)CN=C(c2ccccc2Cl)c2cc(Br)ccc21                =             51.9
5              CCOc1ccccc1NC(=O)c1csc(C)c1C                =             16.5
6         Cc1cc(C(=O)Nc2ccccc2Cc2ccccc2)no1                =              2.8
7  CC(C)Cc1ccc(C(=O)Nc2ccc(Cc3ccncc3)cc2)o1                =              8.7
8  COc1ccc(NCCC(O)c2ccc(Cl)cc2)cc1 (centres undefined)                =             40.5
